B1: FUT8 (parent)
chain: NWRYATGGWETVFRPVSETCTDRS

- Variants of: B1
- method: protein stability index of a GFP-peptide fusion (GPS, HEK-293T) (PSI 1-6); higher = more stable;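 note: lentivirally expressed fusions sorted by FACS into six bins by GFP to DsRed ratio, PSI derived from sequencing read proportions per bin multiplied by bin number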
- experimental-conditions: c terminus: a fixed tail appended
Label 1.0 when protein stability index is at or above 2; otherwise label 0.0.

| mutation-string | class-assignment |
| --- | --- |
| D22Y | 1.0 |
| R23D | 1.0 |
| R3H | 1.0 |
| A5S | 1.0 |
| R3I | 1.0 |
| R14G | 0.0 |
| T19P | 0.0 |
| A5F | 1.0 |
| G7H | 1.0 |
| S17C | 1.0 |
| Y4Q | 1.0 |
| R23N | 0.0 |
| W9L | 1.0 |
| G8C | 0.0 |
| R3G | 1.0 |
| T6E | 1.0 |
| R14I | 1.0 |
| S24H | 0.0 |
| G7L | 0.0 |
| W2T | 1.0 |
| V12A | 1.0 |
| C20P | 0.0 |
| E10Y | 1.0 |
| F13N | 1.0 |
| V16D | 0.0 |
| F13A | 1.0 |
| N1D | 0.0 |
| D22I | 1.0 |
| R23W | 0.0 |
| R14V | 0.0 |
